method summary: Toxicity liver stage against HepG2, at 10uM
Type: cell-based
Set-up: test concentration 10 uM, cell line HepG2-A16-CD81EGFP
study conditions: human, HepG2-A16-CD81EGFP cells; read-out: INHIBITION
parameter: cytotoxicity at 10 µM (%)
Report the figure in % without appending any unit label.

Guide cases for cytotoxicity at 10 µM, answers given:
compound	cytotoxicity at 10 µM / %
COc1ccc(OC)c2c(C)cc(N(C)Cc3cc(C)on3)nc12	1.42
COCC(=O)N1CCC2(CC(C(=O)NCc3cccnc3)=NO2)C1 (stereo unspecified)	-1.34
COC1CCN(C(=O)CCc2c(C)nc3ccnn3c2C)CC1	-5.72

Field cytotoxicity at 10 µM (entry CC(c1nc(C2CC2)no1)N1CCN(c2ccc(C#N)cn2)CC1 (stereo unspecified) ) reads 1.18

Kindly note the recorded cytotoxicity at 10 µM for CCCn1ncc(CN2C[C@@H]3CCCN3C[C@H]2CCSC)c1C , which is -11.2

According to the records, this compound COC(=O)C1Cc2nc[nH]c2CN1Cc1ccc(Sc2ncccn2)o1 (stereo unspecified) displays cytotoxicity at 10 µM of -3.94

---

method summary: Toxicity liver stage against HepG2, at 10uM
Assay type: cell-based
Set-up: test concentration 10 uM, cell line HepG2-A16-CD81EGFP
study conditions: human, HepG2-A16-CD81EGFP cells; read-out: INHIBITION
parameter: cytotoxicity at 10 µM (%)
Kindly answer with a numeric value in %, unit omitted.

The cases that follow already have their cytotoxicity at 10 µM on record.
molecule	reading unit	cytotoxicity at 10 µM
Cc1cccnc1N1CC2(CCN(Cc3cccnc3)C2)C1	%	-8.13
Cc1cn2c(n1)CCC(NC(=O)CCC1CC1)C2 (stereo not drawn)	%	-9.69

# context switch: different molecule, same cytotoxicity at 10 µM
Lab note: measured cytotoxicity at 10 µM of O=C(COCC1CCCCO1)N1CCN(Cc2ccccc2F)C(=O)C1 (stereo not drawn) was 3.15

---

Each entry below carries its reported cytotoxicity at 10 µM.
method summary: Toxicity liver stage against HepG2, at 10uM
Assay type: cell-based
Parameters: test concentration 10 uM, cell line HepG2-A16-CD81EGFP
study conditions: human, HepG2-A16-CD81EGFP cells; read-out: INHIBITION
The reply should contain only the number, in %.

molecule	cytotoxicity at 10 µM, %
NC(=O)CC1CC2(CCNCC2)c2cc(F)ccc21 (stereo not given)	-107
CCn1ncnc1CN1CCc2[nH]cnc2C1CCc1ccccc1 (stereo not given)	0.0189
CCOCCC(=O)N1CCN(CC(C)O)CC1 (stereo not given)	6.7
Cc1noc(CN2CCN(C(=O)N(C)C)CC2)n1	-1.22
Cc1cc(CNc2cccc(Cl)c2C)no1	-2.4

For this molecule ( CC(C)(C)Cc1noc2ncc(C(=O)N3CCCSCC3)cc12 ), measured cytotoxicity at 10 µM is -20.5

Please fill in: cytotoxicity at 10 µM reported for CCCn1nc2c(cc1=O)CN(Cc1nc(-c3ccco3)no1)CC2 = -7.69

Query Cc1cc2cc(C(=O)N[C@@H]3CC[C@@H](N4CCCC4)[C@@H]3O)ccc2o1 yields cytotoxicity at 10 µM of -4.72

// Cc1cnc(C(=O)N2CC[C@@H]3CN(c4ncccn4)CCO[C@@H]3C2)cn1 : cytotoxicity at 10 µM value = -75.2

# molecule CN1CCCC1CNC(=O)CCOc1ccc(Cl)cc1 (stereo not given) ; its cytotoxicity at 10 µM = -4.31

The recorded cytotoxicity at 10 µM for OCc1ccc(Cl)c(NCc2cccnc2)c1 is 3.12

---

Reported values of cytotoxicity at 10 µM for individual entries
method summary: Toxicity liver stage against HepG2, at 10uM
Assay type: cell-based
Design: test concentration 10 uM, cell line HepG2-A16-CD81EGFP
study conditions: human, HepG2-A16-CD81EGFP cells; read-out: INHIBITION
The reply should contain only the number, in %.

Recorded cytotoxicity at 10 µM (compound CN1CCN(C(=O)COCc2nc(-c3ccncc3)no2)CC1 ): 14.6

---

method summary: Toxicity liver stage against HepG2, at 10uM
Type: cell-based
Set-up: test concentration 10 uM, cell line HepG2-A16-CD81EGFP
study conditions: human, HepG2-A16-CD81EGFP cells; read-out: INHIBITION
parameter: cytotoxicity at 10 µM (%)
Hi! Could you send only the number? It should be in %, unit omitted.

Worked examples follow.
compound	value
CNC(=O)N1CCC2(CC1)CN(C(C)C)Cc1cc(F)ccc12	-2.82
CC(C)N(C)S(=O)(=O)c1ccc2c(c1)CCN(C(=O)c1cnccn1)C2	-6.17
CN(Cc1nnn(CC2CC2)n1)C(=O)c1ccccc1	0.889

compound O=c1cc(-c2cc(O)cc(CCC3CCCCN3)c2)cc[nH]1 (stereo not drawn) , cytotoxicity at 10 µM observed: 0.749

Lookup result for COc1cc(CN(C)Cc2ccncc2)c(SC)cc1OC ; measured cytotoxicity at 10 µM: 5.54

cytotoxicity at 10 µM measured on CC(C)(C)n1ncc2c1NC(=O)CC2c1ccc(OCC(N)=O)cc1 (stereo not drawn) = 20.6

For Cn1nc(C(=O)N2CCCC2)c2c1CN(CC1CCOCC1)C2 the compound record lists cytotoxicity at 10 µM as -2.51

Note to self: cytotoxicity at 10 µM recorded for CC[C@@H](CO)Nc1nccc(-c2c[nH]c3cc(C(=O)OC)ccc23)n1 was 67.7

The measured cytotoxicity at 10 µM associated with CSC(C)C(=O)N1CCCN(Cc2cscn2)CC1 (stereo not drawn) reads -2.19

O=C(Nc1cc(-c2ccncc2)no1)C1CC1 has a reported cytotoxicity at 10 µM of -4.18

// Cc1ccccc1C1CCN(C(=O)CCNC(=O)C(C)(C)C)C1 (stereo not drawn) : cytotoxicity at 10 µM value = -5.47

Notebook: Cc1cc(CN2CCN(c3ccc4nncn4n3)C(C)C2)no1 (stereo not drawn) , cytotoxicity at 10 µM read as -4.66

Measured cytotoxicity at 10 µM of COc1ccc2[nH]cc(C(=O)N3C[C@@H](O)[C@H](N4CCCC4)C3)c2c1 : 2.35

---

The compounds listed here are annotated with their cytotoxicity at 10 µM.
method summary: Toxicity liver stage against HepG2, at 10uM
Type: cell-based
Set-up: test concentration 10 uM, cell line HepG2-A16-CD81EGFP
study conditions: human, HepG2-A16-CD81EGFP cells; read-out: INHIBITION
Expressed in %, but write only the number.

Previously resolved entries follow.
compound	parameter	value
O=S(=O)(CCO)Cc1ccc(OC(F)F)cc1	cytotoxicity at 10 µM	-2.88
COc1cccc(CN2CCCC2c2cccc(F)c2)c1OC (stereo not given)	cytotoxicity at 10 µM	6.01
O=C(Nc1ccc(CCN2CCOCC2)cc1)C1CCCC1	cytotoxicity at 10 µM	-16

compound CNCc1cnc(Nc2ccccc2)nc1 , cytotoxicity at 10 µM observed: 1.38

Please fill in: cytotoxicity at 10 µM reported for O=C(Nc1ccccc1Cn1cncn1)C1CCN(C2CCCCC2)C1 (stereo not given) = -5.14

Quick note, cytotoxicity at 10 µM for CSc1ccccc1CCC1CCS(=O)(=O)C1 (stereo not given) landed at 3.75

# compound CNC(=O)C1CCN(Cc2cc3c(cc2O)CCC3)CC1 ; its cytotoxicity at 10 µM = 4.83

Kindly note the recorded cytotoxicity at 10 µM for NC(=O)CCN(CC(=O)NCc1cccs1)c1ccc(F)cc1 , which is 8.75

// field: cytotoxicity at 10 µM; key: Cc1cc(C(F)F)nn1C(C)C(=O)NCc1ncc[nH]1 (stereo not given) ; value = 5.46

c1cncc(C2COC3(CCN(Cc4ccsc4)CC3)C2)c1 (stereo not given) yielded cytotoxicity at 10 µM of -3.74

Looking up NC(=O)C1=NC2=NS(=O)(=O)c3ccccc3N2N1Cc1ccccc1Cl , I see its cytotoxicity at 10 µM listed as -10.9

Note to self: cytotoxicity at 10 µM recorded for CCN1CC(CN(C)Cc2nc(-c3ccc(F)cc3)oc2C)CC1=O (stereo not given) was -2.22

cytotoxicity at 10 µM reading for Cc1ccc(CNC(=O)c2ccc(S(=O)(=O)N3C[C@H]4C[C@@H]3CN4)cc2)o1 : -7.2

---

method summary: Toxicity liver stage against HepG2, at 10uM
Assay type: cell-based
Parameters: test concentration 10 uM, cell line HepG2-A16-CD81EGFP
study conditions: human, HepG2-A16-CD81EGFP cells; read-out: INHIBITION
parameter: cytotoxicity at 10 µM (%)
# unit: % | format: bare number

Previously resolved entries follow.
molecule	value
CN(C)C(=O)CN1CC[C@H]2CN(C3CCOCC3)C[C@@H]2C1=O	-3.84
Cc1nn(CCO)c(C)c1-c1cc(C(C)(C)C)nc(N)c1C#N	4.93
Cc1cccc(CN(Cn2nc(C)c3c(C)onc3c2=O)C2CC2)c1	1.33
CCN(C(=O)C1CCC1)C(c1cccnc1)c1ccc2c(c1)CCO2 (centres undefined)	-7.88
Cc1noc(C(C)N2CCN(c3ncnc4sccc34)CC2)n1 (centres undefined)	8.38
N#Cc1ccc(N2CCCC(CO)(CCOc3ccccc3)C2)nc1 (centres undefined)	17.4
CN(C)c1ncc2c(O)nc(C3CCNCC3)cc2n1	13.3
Cc1ncnc(N2CCN(C(=O)C3CC4(CCNCC4)CN3)CC2)c1C (centres undefined)	-14.7

Let us move to another entry and its cytotoxicity at 10 µM.
Measured cytotoxicity at 10 µM, COc1ccc2c(c1)nc1n2[C@@H](CNC(=O)c2ccccn2)COC1 : -3.03

The origin of these recorded values is ChEMBL document CHEMBL4513216.
